B1: ZC3H15 (parent)
chain: RKADFKAGKALVISGREVFEFRPE

- Variants of: B1
- assay-method-text: protein stability index of a GFP-peptide fusion (GPS, HEK-293T) (PSI 1-6); higher = more stable;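 also: lentivirally expressed fusions sorted by FACS into six bins by GFP to DsRed ratio, PSI derived from sequencing read proportions per bin multiplied by bin number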
- study-conditions: c terminus: a fixed tail appended
Hi there, I'd appreciate the recorded protein stability index for every entry that follows.

Q: What measured protein stability index goes with RKADFKAGKQLVISGREVFEFRPE [A10Q] ?
A: 3.17

Q: Next: RKADFKAGKALVISGREVFEFRTE [P23T]
A: 3.17

Q: Next: RKADFFAGKALVISGREVFEFRPE [K6F]
A: 1.79

Q: Next: RKADFKAGKALVISGREVMEFRPE [F19M]
A: 3.43

Q: Next: RKADFKAGKALVISGREVFEFRPT [E24T]
A: 2.52

Q: Next: RKAEFKAGKALVISGREVFEFRPE [D4E]
A: 2.64

Q: Next: RKADFKAGKFLVISGREVFEFRPE [A10F]
A: 1.53

Q: Next: RKADFDAGKALVISGREVFEFRPE [K6D]
A: 3.75

Q: Next: RKADFKAGKALVISGKEVFEFRPE [R16K]
A: 3.38

Q: Next: RKADFKLGKALVISGREVFEFRPE [A7L]
A: 2.08

Q: Next: RKADFKAGKALVISGREVIEFRPE [F19I]
A: 3.51

Q: Next: RKADIKAGKALVISGREVFEFRPE [F5I]
A: 2.94

Q: Next: RKADFKAGCALVISGREVFEFRPE [K9C]
A: 2.33

Q: Next: RKADFKAIKALVISGREVFEFRPE [G8I]
A: 2.23

Q: Next: RKADFKAGKALVISGREVFEFSPE [R22S]
A: 3.29

Q: Next: RTADFKAGKALVISGREVFEFRPE [K2T]
A: 3.06

Q: Next: RKADFKAGKALVISGREVREFRPE [F19R]
A: 4.24

Q: Next: SKADFKAGKALVISGREVFEFRPE [R1S]
A: 2.9

Q: Next: MKADFKAGKALVISGREVFEFRPE [R1M]
A: 2.71

Q: Next: RKADFKAGKALVISIREVFEFRPE [G15I]
A: 2.37

Q: Next: RKADFKALKALVISGREVFEFRPE [G8L]
A: 1.92

Q: Next: RKADFKCGKALVISGREVFEFRPE [A7C]
A: 2.35
